tested.on: Tyrosine-protein phosphatase non-receptor type 1 (Homo sapiens)
Sequence (P18031 whole entry): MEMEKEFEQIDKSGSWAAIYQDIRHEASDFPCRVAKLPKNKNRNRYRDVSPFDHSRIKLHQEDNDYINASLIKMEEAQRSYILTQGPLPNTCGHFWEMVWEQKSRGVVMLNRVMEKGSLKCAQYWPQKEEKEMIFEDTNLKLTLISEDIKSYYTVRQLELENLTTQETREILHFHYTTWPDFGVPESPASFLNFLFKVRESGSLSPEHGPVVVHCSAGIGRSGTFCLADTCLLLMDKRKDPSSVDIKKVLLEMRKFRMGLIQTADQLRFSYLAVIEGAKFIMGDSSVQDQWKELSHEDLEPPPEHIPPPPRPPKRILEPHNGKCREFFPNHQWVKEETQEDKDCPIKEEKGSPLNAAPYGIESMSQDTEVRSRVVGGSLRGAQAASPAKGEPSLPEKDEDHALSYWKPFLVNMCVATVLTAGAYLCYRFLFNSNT
measurement.protocol: Mixed non-competitive inhibition of human full-length GST-fused PTP1B expressed in bacterial expression system assessed as assessed as dissociation constant of enzyme-inhibitor-substrate complex using pNPP as substrate by double reciprocal plot analysis
parameter.measured: Ki
// return the numeric value with its unit appended

Notebook: COc1cc(/C=C2\S/C(=N\c3ccccc3)N(CC(=O)O)C2=O)ccc1OCc1ccccc1 , Ki read as 40.6 µM
